# maps each entry to its solubility kinetic
conditions: buffer; pH 7.4; 200.0 µM

query.smiles: Cc1csc(NC(=O)CSc2[nH]c(=O)ncc2C)n1
solubility kinetic: > 44.5 µg/mL
--
query.smiles: Cc1ccccc1NC(=O)COc1ccc2c(c1)OC(C)(C)CC2=O
solubility kinetic: < 0.7 µg/mL
--
query.smiles: COc1ccc(NC2=NCCCS2)cc1OC
solubility kinetic: > 37.8 µg/mL
--
query.smiles: CC1CCN(C(=O)c2cc3ccccc3cc2O)CC1
solubility kinetic: > 40.4 µg/mL

###

# maps each entry to its solubility kinetic
conditions: buffer; pH 7.4; 200.0 µM
result.type: solubility kinetic

compound: CN1CCN(CC(=O)N2c3ccccc3Sc3ccccc32)CC1
reported.value: > 50.9 µg/mL
--
compound: CCOC(=O)COc1cc([N+](=O)[O-])cc2cccnc12
reported.value: > 41.4 µg/mL
--
compound: COn1c(=O)c(-c2ccccc2)[n+]([O-])c2ccccc21
reported.value: > 40.2 µg/mL
--
compound: O=C(NCCCCc1ccccc1)c1ccccc1F
reported.value: > 40.7 µg/mL
--
compound: Cn1c(=O)c2c(ncn2CC(O)CO)n(C)c1=O (stereo not drawn)
reported.value: > 38.1 µg/mL
--
compound: CC(NC(=O)COc1ccccc1)C(=O)NCc1ccc(S(N)(=O)=O)cc1 (stereo not drawn)
reported.value: > 58.7 µg/mL
--
compound: Cc1ccc(NC(=O)CSc2nncs2)cc1Cl
reported.value: > 45 µg/mL
--
compound: Cc1csc(NC(=O)Cc2ccc(F)cc2)n1
reported.value: > 37.5 µg/mL
--
compound: O=C(COc1ccccc1)N1CCCCCCC1
reported.value: > 37.1 µg/mL
--
compound: Cn1c(=O)c2c(nc(NNC(=O)C(F)(F)F)n2C)n(C)c1=O
reported.value: > 48 µg/mL
--
compound: CCNC(=O)Cn1cc(C(F)(F)F)cc(Cl)c1=O
reported.value: > 42.4 µg/mL
--
compound: C/C(=C\C(=O)c1sccc1Cl)N(C)C
reported.value: > 34.5 µg/mL
--
compound: CNC(=O)Cn1c(C)cc(=O)c2cccc(C)c21
reported.value: > 36.6 µg/mL

Taken from PubChem BioAssay AID1996.
